Numbers sourced from patent US20020188022A1.

Molecular target: Glial Glutamate Transporter (GLAST and GLT1)
Construct: Bmax; other: 20 nM [3H]-4MG, 4° C; KD
Test: Binding of [3H]-4MG to rat forebrain membrane homogenates in Na+-containing HEPES buffer
Conditions: 20 nM [3H]-4MG, 4° C.; read-out: Displacement of 4MG binding to rat brain membrane homogenates, IC50
observation_type: pIC50
Note on pIC50: it is the negative log10 of concentration, concentration in mol/L.

I am curious: what pIC50 value has been reported for N[C@@H](CC(=O)O)C(=O)O [L-aspartate] ?
5.12

Return reported pIC50; argument: N[C@@H](COS(=O)(=O)O)C(=O)O [SOS, L-serine-O-sulphate]
4.40

# input compound: `N[C@H](C(=O)O)[C@H]1C[C@H]1C(=O)O` ; wanted: its pIC50
5.92

// query pIC50 value for entry O=C(O)[C@H]1CN[C@H](C(=O)O)C1 [PDC, L-trans-pyrrolidine-2,4-dicarboxylate]
5.54

What value of pIC50 has been reported for the following compound? N[C@@H](CCC(=O)O)C(=O)O [glutamate, L-glutamic acid]
5.21

Can you look up the measured pIC50 of N[C@H](CC(=O)O)C(=O)O [D-aspartate] for me?
4.96

---

Tested on: Glial Glutamate Transporter (GLAST and GLT1)
Assay: Binding of [3H]-4MG to rat forebrain membrane homogenates in Na+-containing HEPES buffer
Conditions: FIG. 5
observation_type: Effect on 4MG and/or D-aspartate binding to GluTs

compound	result
N[C@@H](Cn1cc(I)c(=O)[nH]c1=O)C(=O)O	failed to affect
CC(C)(C)c1o[nH]c(=O)c1CC(N)C(=O)O (stereo not shown)	failed to affect
NCCCC(=O)O	failed to affect
NCC(=O)O	failed to affect

---

Biological target: Glial Glutamate Transporter (GLAST and GLT1)
Construct: Bmax; other: 20 nM [3H]-4MG, 4° C; KD
Assay: Binding of [3H]-4MG to rat forebrain membrane homogenates in Na+-containing HEPES buffer
Details: read-out: Displacement of 4MG binding to rat brain membrane homogenates, IC50
observation_type: pIC50
Scale for pIC50: -log10 of concentration given in mol/L; no unit attached.

What value of pIC50 has been recorded for this entry: C[C@H](C[C@H](N)C(=O)O)C(=O)O [4MG, (2S,4R)-4-methylglutamate]
5.17

---

Target: Glial Glutamate Transporter (GLAST and GLT1)
Construct: Bmax; other: 20 nM [3H]-4MG, 4° C; KD
Test: Binding of [3H]-4MG to rat forebrain membrane homogenates in Na+-containing HEPES buffer
Settings: Table 2; read-out: Inhibition of Binding of [3H]-4MG to Glial Glutamate Transporter, IC50
observation_type: IC50 (µM)
Entry rule: numbers only, all in µM.

// lookup IC50 for `C[C@H](C[C@H](N)C(=O)O)C(=O)O`
29

---

Molecular target: Glial Glutamate Transporter (GLAST and GLT1)
Construct: Bmax; other: 20 nM [3H]-4MG, 4° C; KD
Assay: Binding of [3H]-4MG to rat forebrain membrane homogenates in Na+-containing HEPES buffer
Procedure: Forebrain tissue from female Sprague Dawley rats was homogenized in HEPES buffer containing Na^+, and membranes were washed twice in the same buffer. Binding experiments were also performed in this buffer. Initial studies determined appropriate parameters for time (15 minutes incubation at 4° C.) and drug concentration (20 nM [^3H]-4MG) to be used in subsequent experiments. […] Binding was determined by scintillation spectrometry. […] Data were analysed using computer-assisted curve fitting. […]
observation_type: Kd (µM)
Respond numerically; units are µM and should not be typed.

Reported Kd for Glial Glutamate Transporter (GLAST and GLT1), given C[C@H](C[C@H](N)C(=O)O)C(=O)O [4MG, (2S,4R)-4-methylglutamate] ?
5.4
